Tested on: 695427-040-R-J1-PDC complex spheroids, viability percent T/C;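 also: spheroids exposed to compounds for seven days before readout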
Assay: Anticancer human tumor 695427-040-R-J1-PDC patient-derived colon adenocarcinoma cell line growth inhibition [GQUAD]
Conditions: second compound 3.16 µM; first compound 1 µM; stronger effect = lower value

>  <compound>
C=CCn1c(=O)c2cnc(Nc3ccc(N4CCN(C)CC4)cc3)nc2n1-c1cccc(C(C)(C)O)n1 + CN(C)c1ccc(Nc2c3ccc(NC(=O)CCN4CCCC4)cc3nc3cc(NC(=O)CCN4CCCC4)ccc23)cc1

>  <system-name>
695427-040-R-J1-PDC complex spheroids, viability percent T/C;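 also: spheroids exposed to compounds for seven days before readout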

>  <unit-of-measurement>
%

>  <viability, T/C>
80.9

$$$$
>  <compound>
O=C(c1cc(Cc2n[nH]c(=O)c3ccccc23)ccc1F)N1CCN(C(=O)C2CC2)CC1 + CN(C)c1ccc(Nc2c3ccc(NC(=O)CCN4CCCC4)cc3nc3cc(NC(=O)CCN4CCCC4)ccc23)cc1

>  <system-name>
695427-040-R-J1-PDC complex spheroids, viability percent T/C;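 also: spheroids exposed to compounds for seven days before readout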

>  <unit-of-measurement>
%

>  <viability, T/C>
89.3

$$$$
>  <compound>
CC1COCCN1c1cc(C2(S(C)(=N)=O)CC2)nc(-c2ccnc3[nH]ccc23)n1 (stereo not drawn) + CN(C)c1ccc(Nc2c3ccc(NC(=O)CCN4CCCC4)cc3nc3cc(NC(=O)CCN4CCCC4)ccc23)cc1

>  <system-name>
695427-040-R-J1-PDC complex spheroids, viability percent T/C;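 also: spheroids exposed to compounds for seven days before readout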

>  <unit-of-measurement>
%

>  <viability, T/C>
90.8

$$$$
